Ref: patent US20170369590A1

- targetOrTestSystem: human epidermal growth factor receptor 2 (HER2), membrane-bound on cells (human, UniProt P04626 23-1255)
- assayNotes: cell-based or functional assay
measuredProperty: Maximal MFI, fab-CypHer5E internalization, AU565 (MFI)
# unit: MFI | format: bare number

Task: Consider the binder HuMab 127 (antibody, V domains shown) VH: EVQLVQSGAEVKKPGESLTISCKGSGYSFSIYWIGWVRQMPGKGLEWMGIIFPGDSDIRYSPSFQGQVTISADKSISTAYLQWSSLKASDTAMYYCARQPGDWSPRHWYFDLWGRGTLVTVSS VL: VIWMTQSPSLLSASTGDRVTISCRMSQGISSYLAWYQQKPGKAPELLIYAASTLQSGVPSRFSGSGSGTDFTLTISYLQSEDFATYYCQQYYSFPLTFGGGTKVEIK and give its measured Maximal MFI, fab-CypHer5E internalization, AU565.
Result: 138000
